Biological target: T1, mouse IL-11 (mouse, UniProt P47873)
T1 chain: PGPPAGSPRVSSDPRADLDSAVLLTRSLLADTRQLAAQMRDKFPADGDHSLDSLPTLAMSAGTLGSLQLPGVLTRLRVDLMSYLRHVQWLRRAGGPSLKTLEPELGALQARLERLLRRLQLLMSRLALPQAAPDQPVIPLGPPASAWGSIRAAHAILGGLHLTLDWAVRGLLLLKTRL
Test: SPR
The following binders are listed with their measured Kd values.

- binder: "CSJ-A-s-10D10 (antibody, V domains shown) VH: QVQLKESGPGLVQPSQTLSLTCTVSGFSLTNYHVHWVRQPPGKGLEWMGVMWIDGDTSYNSALRSRLSISRDTSKSQVFLKMSSLQTEDTATYYCAREGLNWFAYWGRGTLVTVSS VL: DIQMTQSPASLSVSLEEVVTITCKASQGIDDYLSWYQQKPGKSPQLLISDVTSLADGVPSRFSGSRSGTQYSLKISRPQVDDSGIYYCLQSYSTPYTFGAGTKLELK"
  unit-string: "nM"
  Kd: 0.875
- binder: "CSJ-A-s-2B11 (antibody, V domains shown) VH: QVQLKESGPGLVQPSQTLSLTCTVSGFSLDNYNVHWVRQPTGGGLEWLGGIWTDGITDYTSPLRSRLSISRDTSKSQVFLKMKSLQTEDIATYYCARSYYYSLYYFDYWGQGVMVTVSS VL: DIQMTQSPASLSASLGETVTIECRASEDIYSNLAWYQQKPGDSPQLLIYDAHRLAEGVPSRFSGSGSGTQYSLKINSLHSEDVASYFCQQYDNYNTFGVGTKLDLK"
  unit-string: "nM"
  Kd: 28.2
- binder: "CSJ-B-s-3G8 (antibody, V domains shown) VH: QVTLKESGPGMLQPSKTVSLTCSFSGFSMSTSGMVVSWIRQPSGKSLEWLAAIDWDGEKYYNPSLKSRLTVSKDTSNTQVFLKISSVDIADSATYYCARSGNYFDYWGQGVMVTVSS VL: DIQMTQSPASLSASLGETVTIECRASEDIYNGLVWYQQKPGKSPQLLIYDANRLHTGVPSRFSGGGSGTQYSLKINSLQSEDVASYFCQQYYDYPNTFGAGTKLELK"
  unit-string: "nM"
  Kd: 0.0502
- binder: "CSI-s-9B9 (antibody, V domains shown) VH: EVHLQQSGPELVKPGASVKMSCKASGYTFTSYVIHWVKQRPGQGLEWIGNIYPYNDDTNYNEKFKGKATLTSDKSSSTAYMELSSLTSEESAVYFCTRERATYGDLAWFAYWGQGTLVTVSA VL: NIVLTQSPASLAVSLGQRATISCRASENIDSYGNSFMHWYQQKPGQPPKLLIYLASILESGVPARFSGSGSRTDFTLTIDPVEADDAATYYCQQNNEDPYTFGGGTKLEIK"
  unit-string: "nM"
  Kd: 3.77
